Tested on: OVCAR-3 ovarian
Assay: NCI-60 one-dose screen, 48 h (100 = growth as untreated, 0 = no growth, -100 = all killed)
Condition context: 10 µM unless noted
Compounds without any hit were thinned out: in the full panel of roughly 83,000, 20% have a hit.
Metric name: growth (%)
Your answer should be a plain number; it is taken to be in %.

Q: GET growth where system = OVCAR-3 ovarian and item = `Cc1cc(NC(=O)CNc2nc(Oc3ccc(F)cc3)nc(-c3ccc(F)cc3)n2)ccc1Cl`
Result: 116

Q: GET growth where system = OVCAR-3 ovarian and item = `CCCNc1nc(C)[nH]c(=O)c1S`
Result: 106

Q: GET growth where system = OVCAR-3 ovarian and item = `COc1ccc2[nH]c3nc4cnccc4cc3c2c1`
Result: 104

====

System: NCI/ADR-RES ovarian
Assay: NCI-60 one-dose screen, 48 h (100 = growth as untreated, 0 = no growth, -100 = all killed)
Condition context: 10 µM unless noted
This is part of a sample that, as a whole, favours compounds with a hit. Of some 83,000 tested, about 20% had one in any assay.
Could you label it Yes if measured growth is 90% or higher, and No otherwise?

>>> assigned_category("Cn1c2ccccc2c2c(OC(=O)c3ccccc3)c3c(nc21)-c1ccccc1C3")
"Yes"
>>> assigned_category("S=C(Nc1ccccc1)c1ccccn1")
"Yes"
>>> assigned_category("O=c1nc(-c2ccccc2)c2cc(-c3ccc(N4CCCC4)nc3)ccc2[nH]1")
"No"
>>> assigned_category("CC1(C)Cc2c(Br)c(Br)c(Br)c(OCC(O)CN3CCOCC3)c2O1 (configuration not stated)")
"No"
>>> assigned_category("Cc1c(Cl)cccc1NC(=O)c1sc2nc3c(cc2c1N)CCCCCC3")
"No"
>>> assigned_category("COC(=O)/C=C1\\SC(=Nc2cccc(OC)c2)N(CCc2c[nH]c3ccccc23)C1=O")
"No"

Now look at this one.
Q: I'd appreciate it if you could say whether `C=C1C(=O)O[C@H]2[C@H]1CC/C(COC(=O)NCc1nc3ccccc3[nH]1)=C\CC[C@@]1(C)O[C@@H]21` has growth at least equal to 90%.
Result: Yes

====

Below is a list of entries, each paired with its recorded growth value.
System: COLO 205 colon
Assay: NCI-60 one-dose screen, 48 h (100 = growth as untreated, 0 = no growth, -100 = all killed)
Condition context: 10 µM unless noted
The panel holds about 83,000 compounds, 20% with a hit somewhere; the sample as a whole holds those more often.
Your answer should be a plain number; it is taken to be in %.

Consider the reported growth for these compounds:
>>> recorded_number("S=C(Nc1ccccc1)c1ccccn1")
67.9
>>> recorded_number("NCCN1CCNCC1")
122
>>> recorded_number("O=C1c2ccccc2C(=O)c2c1oc1c2c(=O)[nH]c2ccc(Cl)cc21")
85.7
>>> recorded_number("O=C(/C(=C/c1ccc([N+](=O)[O-])cc1)SCc1ccc(Cl)cc1)c1ccc(F)cc1")
48.3
>>> recorded_number("CC(C)(C#N)c1cc(F)cc(C(=O)Nc2cc(Nc3ncccc3-c3ncnc4nc[nH]c34)ccc2F)c1")
6.56

Q: GET growth where system = COLO 205 colon and item = `Cc1nccc2c3ccc(OCc4cn(-c5ccc(Br)cc5)nn4)cc3n(CC(C)C)c12`
Result: 15.1

Q: GET growth where system = COLO 205 colon and item = `CCCCCCCc1n(Cc2ccc3ccccc3c2)c2ccccc2[n+]1Cc1ccc2ccccc2c1`
Result: -75.8

Q: GET growth where system = COLO 205 colon and item = `CC1CCN(CCCCCOc2ccc3oc4ccccc4c(=O)c3c2)CC1`
Result: 58.5

Q: GET growth where system = COLO 205 colon and item = COc1c(O)cc2oc3cc(O[C@@H]4OC(C)[C@@H](O)[C@H](O)C4O)c(CC=C(C)C)c(O)c3c(=O)c2c1CC=C(C)C (stereo partly specified)
Result: 114

Q: GET growth where system = COLO 205 colon and item = `Nc1cc(N)nc(SCC(=O)O)n1`
Result: 114

Q: GET growth where system = COLO 205 colon and item = `COc1cc([C@H](C)c2ccc3ccccc3c2)cc(OC)c1OC`
Result: -3.69

Q: GET growth where system = COLO 205 colon and item = `COc1cc(C(=O)Nc2cc(O)c(C/C=C(\C)CCC=C(C)C)c(O)c2)cc2c1O[C@]1(C)CC[C@@H](O)C(C)(C)[C@H]1C2`
Result: -22.2

Q: GET growth where system = COLO 205 colon and item = `N#CCNc1ccc(C(=O)O)cc1`
Result: 110

Q: GET growth where system = COLO 205 colon and item = `COc1ccc(/C=C/C(=O)c2ccc(NC(=O)CSc3nnc(-c4ccc(OC)c(OC)c4)n3-c3ccccc3)cc2)cc1`
Result: 26.7

Q: GET growth where system = COLO 205 colon and item = `O=C1NC(SCc2ccc(F)cc2)=N/C1=C/c1cccc(OCc2ccc(Cl)cc2)c1`
Result: 55.3

Q: GET growth where system = COLO 205 colon and item = CCCCc1nc(Cl)c(C2CC(c3ccc(Cl)cc3)=NN2c2cc(Cl)cc(Cl)c2)[nH]1 (stereo unspecified)
Result: 96.1

====

Test system: HCT-15 colon
Assay: NCI-60 one-dose screen, 48 h (100 = growth as untreated, 0 = no growth, -100 = all killed)
Condition context: 10 µM unless noted
About 83,000 compounds went through this panel and 20% of them were active in at least one assay; those are over-represented in the sample as a whole.
Could you label it condition met if measured growth is 30% or higher, and condition not met otherwise?

Use the examples below as a reference point.
>>> assigned_category("CC(C)(C)c1nc2c(s1)c1nc(N)ncc1c1ccc(NS(=O)(=O)c3c(F)cccc3F)c(F)c12")
"condition met"
>>> assigned_category("Clc1ccc2c(NCCCNC3CCCCC3)ccnc2c1")
"condition met"
>>> assigned_category("C/C(=N/Nc1nc2ccccc2n1C)c1ccccn1")
"condition not met"
>>> assigned_category("Nc1c(C(=O)Nc2ccccn2)sc2nc3c(cc12)CCCC3")
"condition not met"
>>> assigned_category("O=C1CC23OC4ON=C(Br)C4C2C(O)c2ccccc2N13 (configuration not stated)")
"condition met"

Q: I'd appreciate it if you could say whether `CN1C(=O)c2cc(Cl)nc3c(NC(=O)c4cccc(Cl)c4)c(Cl)c(NC(=O)c4cccc(Cl)c4)c1c23` has growth at least equal to 30%.
Result: condition not met

Q: I'd appreciate it if you could say whether COc1ccc2nc(-c3ccc(Cl)cc3)cc(C(=O)N3N=C(c4ccc(N)cc4)CC3c3ccccc3)c2c1 (configuration not stated) has growth at least equal to 30%.
Result: condition not met

Q: I'd appreciate it if you could say whether `C=C1C(=O)O[C@H]2[C@H]1CC/C(COC(=O)CCCCCCCCC(=O)OC/C1=C/CC[C@@]3(C)O[C@H]3[C@H]3OC(=O)C(=C)[C@@H]3CC1)=C\CC[C@@]1(C)O[C@@H]21` has growth at least equal to 30%.
Result: condition not met

Q: I'd appreciate it if you could say whether CCOc1ccc(C2N(c3cc(OC)c(OC)c(OC)c3)C(=O)C2(F)F)cc1 (configuration not stated) has growth at least equal to 30%.
Result: condition not met

Q: I'd appreciate it if you could say whether `COC(=O)/C=C/c1cc(OC)c2c(c1)[C@@H](C(=O)OC)[C@H](c1ccc(OC)c(OC)c1)O2` has growth at least equal to 30%.
Result: condition met

Q: I'd appreciate it if you could say whether `CC(C)(C)c1nn(-c2ccccc2)c2c1COCN2Cc1ccc(Cl)cc1` has growth at least equal to 30%.
Result: condition met

Q: I'd appreciate it if you could say whether `CCN(CC)CC#CCOC(=O)[C@]1(C)CCC[C@]2(C)[C@H]3C[C@H]4C(C(C)C)=C[C@]3(CC[C@H]21)[C@@H]1C(=O)CCC(=O)[C@@H]14` has growth at least equal to 30%.
Result: condition met

Q: I'd appreciate it if you could say whether `CCSc1nc(Cl)c(C#N)c(-c2ccc(F)cc2)n1` has growth at least equal to 30%.
Result: condition met

Q: I'd appreciate it if you could say whether CCCCCCC/C=C/[C@H]1O[C@]23C(=O)C[C@@]4(C[C@@H](OC5OC(CO)C(O)C(O)C5O)C[C@@H]4[C@H]2C=C1C)OC3=O (some centres not stated) has growth at least equal to 30%.
Result: condition not met

Q: I'd appreciate it if you could say whether Cc1ccc(C(=O)/C(=C/c2ccc([N+](=O)[O-])cc2)S(=O)Cc2ccccc2)cc1 (configuration not stated) has growth at least equal to 30%.
Result: condition not met

Q: I'd appreciate it if you could say whether `CCOC(=O)c1ccc(Nc2ncnc3ccc(NC(=O)c4ccccc4)cc23)cc1` has growth at least equal to 30%.
Result: condition met

The reported numbers originate from PubChem BioAssay (NCI).
